biological target: T1, mfGCGR-hFc (cynomolgus monkey (Macaca fascicularis)); test: SPR Biacore T100, 25C, mAb captured, antigen flowed
T1 construct: also called mfGCGR-N-terminal hFc
T1 sequence (chain, as listed by the source limits assumed): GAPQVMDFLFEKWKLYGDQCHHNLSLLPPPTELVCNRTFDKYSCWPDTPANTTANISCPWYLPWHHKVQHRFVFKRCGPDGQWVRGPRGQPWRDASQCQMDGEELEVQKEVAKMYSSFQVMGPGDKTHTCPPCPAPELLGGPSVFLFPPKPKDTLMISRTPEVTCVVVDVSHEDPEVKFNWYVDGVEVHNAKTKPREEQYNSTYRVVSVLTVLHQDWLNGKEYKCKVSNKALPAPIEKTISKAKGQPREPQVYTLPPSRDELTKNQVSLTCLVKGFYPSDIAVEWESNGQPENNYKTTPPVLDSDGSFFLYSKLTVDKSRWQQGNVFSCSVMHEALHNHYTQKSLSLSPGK
Measured pKd, listed per entry.
Entry type: numeric. Quantity: pKd, the -log10 of concentration in molar units.

binder | endpoint-value
H4H1321P (antibody, V domains shown, Fully human anti-GCGR antibody; the controls are called isotype-matched hIgG4) VH: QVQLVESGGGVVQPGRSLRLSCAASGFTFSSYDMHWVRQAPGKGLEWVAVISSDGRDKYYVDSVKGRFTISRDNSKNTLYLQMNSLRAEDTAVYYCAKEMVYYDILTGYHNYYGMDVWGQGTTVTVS VL: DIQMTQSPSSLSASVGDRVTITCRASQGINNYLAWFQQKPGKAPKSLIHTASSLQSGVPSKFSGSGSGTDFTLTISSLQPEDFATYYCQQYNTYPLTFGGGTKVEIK | 10.62
H4H1331P (antibody, V domains shown, Fully human anti-GCGR antibody; the controls are called isotype-matched hIgG4) VH: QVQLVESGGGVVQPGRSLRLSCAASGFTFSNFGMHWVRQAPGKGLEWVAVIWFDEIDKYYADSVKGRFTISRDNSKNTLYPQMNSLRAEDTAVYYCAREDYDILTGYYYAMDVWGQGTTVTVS VL: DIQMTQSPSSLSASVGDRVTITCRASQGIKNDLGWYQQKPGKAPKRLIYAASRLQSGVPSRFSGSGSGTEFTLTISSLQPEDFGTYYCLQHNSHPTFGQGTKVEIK | 11.16
H4H1327P (antibody, V domains shown, also called anti-GCGR (hIgG4) antibody designated H4H1327P) VH: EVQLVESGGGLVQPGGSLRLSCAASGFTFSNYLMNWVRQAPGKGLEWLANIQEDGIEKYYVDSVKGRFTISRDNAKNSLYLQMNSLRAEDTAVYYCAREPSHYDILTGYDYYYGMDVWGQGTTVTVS VL: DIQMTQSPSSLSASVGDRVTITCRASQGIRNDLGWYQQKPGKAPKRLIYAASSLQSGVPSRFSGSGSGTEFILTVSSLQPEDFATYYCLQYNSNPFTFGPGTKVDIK | 11.04
H4H1328P (antibody, V domains shown, Fully human anti-GCGR antibody; the controls are called isotype-matched hIgG4) VH: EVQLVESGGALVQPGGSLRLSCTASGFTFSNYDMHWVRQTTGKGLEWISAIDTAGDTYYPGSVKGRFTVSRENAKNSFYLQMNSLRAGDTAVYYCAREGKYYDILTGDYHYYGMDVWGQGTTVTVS VL: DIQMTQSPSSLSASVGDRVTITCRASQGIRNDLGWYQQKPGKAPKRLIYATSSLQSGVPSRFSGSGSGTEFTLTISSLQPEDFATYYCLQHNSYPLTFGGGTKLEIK | 10.28

// next entry
-- ask Requested read-out: pKd. Entry: H4H1339P (antibody, V domains shown, Fully human anti-GCGR antibody; the controls are called isotype-matched hIgG4) VH: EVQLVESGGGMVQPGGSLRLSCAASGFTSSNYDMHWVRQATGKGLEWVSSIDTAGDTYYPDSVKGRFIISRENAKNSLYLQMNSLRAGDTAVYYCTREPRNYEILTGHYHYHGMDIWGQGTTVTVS VL: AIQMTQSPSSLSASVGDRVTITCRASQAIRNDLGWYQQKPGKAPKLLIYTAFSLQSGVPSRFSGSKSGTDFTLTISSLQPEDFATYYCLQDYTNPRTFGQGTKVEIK
-- reply 10.74
